- target: Human Cav 2.2 channels (Homo sapiens, UniProt Q00975)
- experiment_summary: Fluorescent assay for CaV2.2 channels using potassium depolarization (VIPR/FLIPR)
- Type: cell-based
- run_conditions: FLIPR data; ratio closed/inactivated IC50
Assign CAv2.2 IC50 Ratio closed/inact. to each entry below.
Numbers only.

>>> measured_number("O=C(NC[C@H]1C[C@H](S(=O)(=O)c2cccc(C(F)(F)F)c2)C1)c1ccc(C(F)(F)F)cc1")
13.1

For each of the molecules below, state CAv2.2 IC50 Ratio closed/inact..
1. CC(C)([C@H]1C[C@@H](NC(=O)c2ccc(F)c(Cl)c2)C1)S(=O)(=O)c1cc(F)cc(C(F)(F)F)c1
2. CC(C)(C[C@H]1C[C@@H](NC(=O)c2ccc(C(F)(F)F)cc2)C1)S(=O)(=O)c1cccc(C(F)(F)F)c1
3. CC(C)([C@H]1C[C@@H](NS(=O)(=O)c2ccc(C(F)(F)F)nc2)C1)S(=O)(=O)c1cc(F)cc(C(F)(F)F)c1

RESULT:
1: 8.3; 2: 15.3; 3: 8.1

* * *

- target: T-type calcium channel (Homo sapiens)
- Sequence (O95180 whole entry): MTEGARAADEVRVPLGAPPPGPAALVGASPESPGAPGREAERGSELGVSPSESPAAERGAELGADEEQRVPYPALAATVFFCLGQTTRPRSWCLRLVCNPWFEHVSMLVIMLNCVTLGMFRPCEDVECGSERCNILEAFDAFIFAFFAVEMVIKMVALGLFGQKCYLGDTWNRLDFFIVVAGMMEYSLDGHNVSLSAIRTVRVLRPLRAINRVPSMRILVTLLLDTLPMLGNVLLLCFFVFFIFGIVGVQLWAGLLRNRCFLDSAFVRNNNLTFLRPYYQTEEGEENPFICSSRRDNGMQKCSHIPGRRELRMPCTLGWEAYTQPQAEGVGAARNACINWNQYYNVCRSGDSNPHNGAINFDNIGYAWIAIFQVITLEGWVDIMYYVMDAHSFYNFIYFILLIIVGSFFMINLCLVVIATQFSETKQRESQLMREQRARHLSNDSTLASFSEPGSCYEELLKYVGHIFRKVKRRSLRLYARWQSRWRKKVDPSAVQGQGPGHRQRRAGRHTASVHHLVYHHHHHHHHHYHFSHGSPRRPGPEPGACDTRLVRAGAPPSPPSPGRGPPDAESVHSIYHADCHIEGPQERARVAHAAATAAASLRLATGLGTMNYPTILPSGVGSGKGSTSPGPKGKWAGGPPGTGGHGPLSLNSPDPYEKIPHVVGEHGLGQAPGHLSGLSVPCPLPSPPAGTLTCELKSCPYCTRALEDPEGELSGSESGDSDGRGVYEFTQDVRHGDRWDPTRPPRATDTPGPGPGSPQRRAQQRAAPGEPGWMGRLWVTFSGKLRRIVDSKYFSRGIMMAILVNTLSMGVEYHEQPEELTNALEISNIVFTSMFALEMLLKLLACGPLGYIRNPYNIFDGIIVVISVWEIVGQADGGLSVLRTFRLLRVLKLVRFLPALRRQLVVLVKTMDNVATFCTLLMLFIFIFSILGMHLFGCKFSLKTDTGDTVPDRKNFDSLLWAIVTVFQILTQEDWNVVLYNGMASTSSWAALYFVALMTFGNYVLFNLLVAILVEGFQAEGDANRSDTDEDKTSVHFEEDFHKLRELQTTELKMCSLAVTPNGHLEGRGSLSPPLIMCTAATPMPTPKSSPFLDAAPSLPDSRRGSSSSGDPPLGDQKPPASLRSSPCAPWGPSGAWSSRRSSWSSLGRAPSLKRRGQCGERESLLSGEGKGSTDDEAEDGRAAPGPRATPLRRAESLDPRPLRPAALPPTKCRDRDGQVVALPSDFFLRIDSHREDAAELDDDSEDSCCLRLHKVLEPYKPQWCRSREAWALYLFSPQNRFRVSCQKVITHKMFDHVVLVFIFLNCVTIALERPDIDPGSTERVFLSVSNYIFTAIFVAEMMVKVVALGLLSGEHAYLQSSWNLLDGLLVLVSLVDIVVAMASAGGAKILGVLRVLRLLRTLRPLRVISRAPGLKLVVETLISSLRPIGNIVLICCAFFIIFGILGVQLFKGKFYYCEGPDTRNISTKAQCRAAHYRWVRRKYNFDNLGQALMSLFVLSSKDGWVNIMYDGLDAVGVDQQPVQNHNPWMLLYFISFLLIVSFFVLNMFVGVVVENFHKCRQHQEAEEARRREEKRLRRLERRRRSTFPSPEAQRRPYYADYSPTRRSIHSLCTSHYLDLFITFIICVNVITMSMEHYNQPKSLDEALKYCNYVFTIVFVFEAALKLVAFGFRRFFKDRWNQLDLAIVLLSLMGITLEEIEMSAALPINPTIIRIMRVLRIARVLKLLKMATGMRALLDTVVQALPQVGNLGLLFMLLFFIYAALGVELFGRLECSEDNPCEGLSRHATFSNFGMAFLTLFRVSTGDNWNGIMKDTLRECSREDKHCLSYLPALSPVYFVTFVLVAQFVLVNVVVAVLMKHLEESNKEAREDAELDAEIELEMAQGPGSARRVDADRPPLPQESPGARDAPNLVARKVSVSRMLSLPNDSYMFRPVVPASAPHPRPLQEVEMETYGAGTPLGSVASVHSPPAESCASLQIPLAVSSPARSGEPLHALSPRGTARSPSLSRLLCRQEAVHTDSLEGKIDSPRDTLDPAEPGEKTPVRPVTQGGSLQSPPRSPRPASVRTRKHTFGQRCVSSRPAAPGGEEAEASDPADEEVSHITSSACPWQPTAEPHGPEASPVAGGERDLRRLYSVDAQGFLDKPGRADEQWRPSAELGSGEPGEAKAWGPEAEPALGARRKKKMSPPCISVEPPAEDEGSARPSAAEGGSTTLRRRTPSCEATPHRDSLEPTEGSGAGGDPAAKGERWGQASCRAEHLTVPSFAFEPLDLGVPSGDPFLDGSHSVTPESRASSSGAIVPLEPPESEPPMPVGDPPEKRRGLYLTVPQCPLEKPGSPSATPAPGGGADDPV
- experiment_summary: T-type channel blocking, FLIPR data (Table 6)
- Format: cell-based
- run_conditions: CAv3.2, ratio closed/inactivated IC50
observed_property: CAv3.2 IC50 Ratio closed/inact.
Numbers only.

>>> measured_number("CC(C)([C@H]1C[C@H](NS(=O)(=O)c2ccc(C(F)(F)F)cc2)C1)S(=O)(=O)c1cccc(C(F)(F)F)c1")
1.9

For each of the compounds below, state CAv3.2 IC50 Ratio closed/inact..
1. CC(C)([C@H]1C[C@H](NS(=O)(=O)c2ccc(OC(F)(F)F)cc2)C1)S(=O)(=O)c1cc(F)cc(C(F)(F)F)c1
2. CC(C)S(=O)(=O)c1cc(C(F)(F)F)cnc1C(=O)NCC1CC(C(C)(C)S(=O)(=O)c2cccc(C(F)(F)F)c2)C1 (stereo not shown)

RESULT:
1. 7
2. 1.7

For each of the compounds below, state CAv3.2 IC50 Ratio closed/inact..
1. CC(C)([C@H]1C[C@H](NC(=O)c2ccnc(C(F)(F)F)n2)C1)S(=O)(=O)c1cc(F)cc(C(F)(F)F)c1
2. O=C(NC[C@H]1C[C@H](S(=O)(=O)c2cccc(OC(F)(F)F)c2)C1)c1cnc(C(F)(F)F)nc1
3. CC(C)([C@H]1C[C@@H](NS(=O)(=O)c2ccc(C(F)(F)F)nc2)C1)S(=O)(=O)c1cccc(C(F)(F)F)c1
4. O=C(NC[C@H]1C[C@H](S(=O)(=O)c2cccc(C(F)(F)F)c2)C1)c1ccc(Cl)cn1

RESULT:
1
1.6
1
1.4

* * *

Assign pIC50 to each entry below.
- target: T-type calcium channel (Homo sapiens)
- experiment_summary: T-type channel blocking, FLIPR data (Table 6)
- Format: cell-based
- run_conditions: CAv3.2, closed state, read-out: CAv3.2 IC50 Closed
Give bare numbers, as −log10 of the molar value.

Illustrative cases are given below, each with its answer.
>>> measured_number("CC(C)(C[C@H]1C[C@@H](NC(=O)c2ccc(C(F)(F)F)cn2)C1)S(=O)(=O)c1cccc(C(F)(F)F)c1")
5.34
>>> measured_number("Cc1nc(C(F)(F)F)ccc1NC(=O)[C@H]1C[C@H](C(C)(C)S(=O)(=O)c2cccc(C(F)(F)F)c2)C1")
5.17

For the next question, use this compound.
QUERY: Entry `CC(C)([C@H]1C[C@H](CNc2cc(C(F)(F)F)n[nH]2)C1)S(=O)(=O)c1cccc(C(F)(F)F)c1` : reported pIC50 = ?
RESULT: 5.23

Hello, the source for this data is patent US20120245137A1, in case you need it.
